Measured melting point of individual entries
MEASURED PARAMETER: melting point

# CHEMICAL STRING, RESULT
rows = [
    ("COc1cc2c(Nc3ccc(Sc4nccn4C)c(Cl)c3)c(C#N)cnc2cc1N1CCC(N2CCCC2)CC1", "225 to 229 °C"),
    ("COc1cc2c(Nc3ccc(Sc4ccccn4)c(Cl)c3)c(C#N)cnc2cc1N1CCC(N2CCCC2)CC1", "203 to 205 °C"),
    ("COc1cc2c(Nc3ccc(Sc4nccn4C)c(Cl)c3)c(C#N)cnc2cc1N1CCN(C2CCN(C)CC2)CC1", "220 to 226 °C"),
    ("N#Cc1cnc2cc(N3CCC(N4CCCC4)CC3)c([N+](=O)[O-])cc2c1Cl", "255 to 265 °C (dec.)"),
]

====

EXPERIMENTAL SYSTEM: recombinant human MEK 1 (MAPKK) / human ERK2 (MAPK) (Homo sapiens, UniProt P28482+Q02750)
Construct: GST
Sequence (P28482 whole entry): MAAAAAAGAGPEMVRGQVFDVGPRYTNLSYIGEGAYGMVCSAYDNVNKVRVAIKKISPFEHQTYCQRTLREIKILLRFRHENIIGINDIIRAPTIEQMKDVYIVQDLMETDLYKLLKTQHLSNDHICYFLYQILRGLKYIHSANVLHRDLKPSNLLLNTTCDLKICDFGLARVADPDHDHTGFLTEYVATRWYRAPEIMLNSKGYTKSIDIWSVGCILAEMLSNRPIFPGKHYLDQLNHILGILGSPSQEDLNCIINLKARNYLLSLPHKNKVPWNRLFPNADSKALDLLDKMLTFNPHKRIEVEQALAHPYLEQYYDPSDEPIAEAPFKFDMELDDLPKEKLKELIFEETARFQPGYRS
Sequence (Q02750 whole entry): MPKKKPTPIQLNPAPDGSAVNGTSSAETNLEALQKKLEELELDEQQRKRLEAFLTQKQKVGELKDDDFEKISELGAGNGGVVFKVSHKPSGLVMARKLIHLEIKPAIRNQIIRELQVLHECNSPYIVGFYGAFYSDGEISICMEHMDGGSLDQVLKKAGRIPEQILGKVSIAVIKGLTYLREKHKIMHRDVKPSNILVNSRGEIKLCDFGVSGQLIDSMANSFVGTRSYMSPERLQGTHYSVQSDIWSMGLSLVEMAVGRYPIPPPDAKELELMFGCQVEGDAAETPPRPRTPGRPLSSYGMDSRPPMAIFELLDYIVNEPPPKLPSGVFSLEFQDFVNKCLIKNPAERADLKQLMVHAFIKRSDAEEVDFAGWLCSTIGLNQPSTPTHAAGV
TEST DESCRIPTION: Mitogen Activated Protein Kinase (MAPK) test procedure (Mek-Erk coupled)
CONDITION NOTES: MEK1-activated ERK2, 33P ATP, peptide substrate
Description: Mitogen Activated Protein Kinase (MAPK) Test Procedure […] The reaction is run as follows in 50 mM Tris kinase buffer, pH 7.4 in a reaction volume of 50 ul. […] The filters are briefly air dried before addition of scintillant and samples are counted in the appropriate scintillation counter set up for reading ^33P isotope. […]
pIC50: −log10 of the molar value.

# CHEMICAL STRING, pIC50
measured = [
    ("COc1cc2c(Nc3ccc(Oc4ccccc4)cc3)c(C#N)cnc2cc1OCCN1CCC(N2CCCCC2)CC1", 7.35),
]

====

Reported values of melting point for individual entries

# CHEMICAL STRING, melting point
measured = [
    ("COc1cc2c(Nc3ccc(Sc4nccn4C)c(Cl)c3)c(C#N)cnc2cc1N1CCC(N2CCN(C)CC2)CC1", "235 to 237 °C"),
    ("Cn1ccnc1Sc1ccc(Nc2c(C#N)cnc3cc(N4CCC(N5CCCC5)CC4)ccc23)cc1Cl", "125 to 130 °C"),
    ("COc1cc2c(Nc3ccc(Sc4ccccn4)cc3)c(C#N)cnc2cc1N1CCC(N2CCCC2)CC1", "182 to 184 °C"),
    ("Cn1ccnc1Sc1ccc(Nc2c(C#N)cnc3cc(N4CCC(N5CCCC5)CC4)c([N+](=O)[O-])cc23)cc1Cl", "220 to 230 °C"),
    ("CCOc1cc2c(Nc3ccc(Sc4nccn4C)c(Cl)c3)c(C#N)cnc2cc1N1CCC(N2CCCC2)CC1", "203 to 207 °C"),
    ("CC(=O)N(C(C)=O)c1cc2c(Nc3ccc(Sc4nccn4C)c(Cl)c3)c(C#N)cnc2cc1N1CCC(N2CCCC2)CC1", "245 to 247 °C"),
    ("COc1cc2c(Nc3ccc(Sc4nccn4C)c(Cl)c3)c(C#N)cnc2cc1OCCN1CCC(N2CCCC2)CC1", "127 to 130 °C"),
    ("CNc1cc2c(Nc3ccc(Sc4nccn4C)c(Cl)c3)c(C#N)cnc2cc1N1CCC(N2CCCC2)CC1", "242 to 250 °C"),
    ("CC(=O)Nc1cc2c(Nc3ccc(Sc4nccn4C)c(Cl)c3)c(C#N)cnc2cc1N1CCC(N2CCCC2)CC1", "243 to 255 °C"),
    ("COc1cc2c(Nc3ccc(Sc4nccn4C)c(Cl)c3)c(C#N)cnc2cc1OCCCN1CCC(N2CCCC2)CC1", "196 to 198 °C"),
    ("COc1cc2c(Nc3ccc(Oc4cccnc4)cc3)c(C#N)cnc2cc1N1CCC(N2CCCC2)CC1", "194 to 196 °C"),
    ("N#Cc1c[nH]c2cc(N3CCC(N4CCCC4)CC3)c([N+](=O)[O-])cc2c1=O", "232 to 235 °C"),
    ("COc1cc2c(Nc3ccc(Sc4nccn4C)c(Cl)c3)c(C#N)cnc2cc1N1CCN(CCn2ccnc2)CC1", "251 to 253 °C"),
    ("COc1cc2c(Nc3ccc(Sc4nccn4C)c(Cl)c3)c(C#N)cnc2cc1N1CCC(N2CCOCC2)CC1", "219 to 221 °C"),
    ("COc1cc2c(Nc3ccc(Oc4ccccc4)cc3)c(C#N)cnc2cc1OCCN1CCC(N2CCCCC2)CC1", "141 °C (dec.)"),
    ("COc1cc(Nc2c(C#N)cnc3cc(OCCCN4CCC(N5CCCC5)CC4)c(OC)cc23)c(Cl)cc1Cl", "108 to 112 °C"),
]
